test: folding stability dG unfold (combined trypsin and chymotrypsin); higher = more stable
Given measured folding stability dG unfold, output 1 (yes) if it is greater than or equal to 4 kJ/mol and 0 (no) if not.

INSERT INTO results (record_sequence, category) VALUES
  ('SAGGSARVVILPDGYLLVEVDGKPFLFGPNDEVEIEEEGDELILRLRLRDKDGKEVGEFPFRFRLESAGGSA [r15_424_TrMRF]', '1 (yes)'),
  ('SAGGSAGGSAGGMIKIKLGDKWVDVAEVKEYPDSIIVYNPKTNTKITISKKNPEDPNILISAGGSAGGSAGG [r7_391_JUSTAS]', '1 (yes)'),
  ('SAGGSAGGSMSTTETTVTEVTITVRSDGKVSREVKVTVTTTTTITPAGGTATVTTTTTRTPLESAGGSAGGS [r12_409_JUSTAS]', '1 (yes)'),
  ('SAGGSAGGSAKKPVTGTIILKYPGTPEDALAKAKEIAKELESRGYSVSAEFLPNGYIKITLPSAGGSAGGSA [r18_262_TrMRF]', '1 (yes)'),
  ('SAGGSANPNGKPWVEVEVSFMIPIDDEDIADALGGPPKPGDWLMITVKIRVYPDGNVEIDINLHPMSAGGSA [r15_91_TrROS]', '1 (yes)'),
  ('SAGGSAGGSMRVEITEVKEVRGEGGEPRYLVTVRITVPDGKEETFVYEFKTPEELEKLEVELPSAGGSAGGS [r20_130_JUSTAS]', '1 (yes)'),
  ('SAGGMKTSAEELVERLKKELEAKGLKPKEVKKLPDGSLLVEFEEDVVVYIDAKTGTVTVLTPEEYEKLSAGG [r13_717_JUSTAS]', '1 (yes)'),
  ('SAGGSAGGSAGKPKKKPPKPKIETKTITVTITNKDGSKTTVTATIVRNKDTNELFIRISSSAGGSAGGSAGG [r11_1024_TrROS_Hall]', '1 (yes)'),
  ('SAKITITLPNGKKIEIELPEGYEIVEVTFDKETGVITIKVKNKETGKEYKITLTFNEDGSLTISIEEVDSAG [r14_311_TrROS_Hall]', '1 (yes)'),
  ('SAGGSAGGSAGMTITVYPSDGTVLTRDMSLSEIPELLKKHPELVLESIEEGEGLAKFKVKSAGGSAGGSAGG [r17_22_JUSTAS]', '0 (no)'),
  ('SAGGSAGGSAGGMPAEEVQNIIEEQGFDGPNQTVTIDVPDGRRVKIEMPPNGMKLEVEDSAGGSAGGSAGGS [r10_604_TrROS]', '0 (no)'),
  ('SAELPPGMRLVIDDIEPMRNNGKPMLMIKLSIYDPAKPGKEITHWTIMVTNDNIMAIQPTTYRIPPDDISAG [r14_651_TrROS]', '1 (yes)'),
  ('SAGGMKVTVYPDGTVSVEIEPGQTLTVSLGDKEYTVTAEYPSITITTTPVPVPPPAVPPENVDPSLVSAGGS [r16_600_JUSTAS]', '1 (yes)'),
  ('SAGGSAGGSAGMKIRIELPGMSPEQIEELAKLIPNVRVSITYDKETNRVYVEIEVSEEDLSAGGSAGGSAGG [r11_862_TrROS_Hall]', '1 (yes)'),
  ('SAGGSAGGSAGSFVKGGTVYEIYKNPNTKKYTIVATPKNGKKYVFTFDSPEEAEKALKASSAGGSAGGSAGG [r11_238_TrMRF]', '1 (yes)'),
  ('SAGGSAGGSAGSMAVDLKITISEDPSKPTYTGTVHLPDGTVVTVTSTGSPEELRARLEALLSAGGSAGGSAG [r3_143_JUSTAS]', '1 (yes)'),
  ('SAGGSAGGSAGGDESYRKLLEELPLPVTEIVVETVPLPETDEPITVVTPKNPDGKEVTLGSAGGSAGGSAGG [r7_337_JUSTAS]', '0 (no)'),
  ('SSISIPGLTEEKAAELAKRLRELFPGAEVKTTTFPEKKVVVVDVTLPVVDADGKLVGTVKLRLVLVVEDDSA [r9_378_TrMRF]', '1 (yes)'),
  ('SAGGSAGGSAGGPMRLVRIPLDDGKIKVVPIPPGEAIPFENDNGEIYFMVTDDKIEIMPSAGGSAGGSAGGS [r10_817_TrROS]', '0 (no)'),
  ('SAGGGSAWKVTAENLPADGYVKFPDGTTVPPGTELTVPLSAGYTDIRALDPEGNVVSVELVPLPEPKLSAGG [r13_441_JUSTAS]', '0 (no)'),
  ('SAGMPPTTVEVKVTVVKTPEGYEVVAEVVTPDRTETLTIPPHLGLEEAKARLEAVLAERGLTLVDWTLESAG [r5_305_JUSTAS]', '1 (yes)'),
  ('GMTIVPPSSPVTDSSGNYEEYPDSQLYKDSSTGKPIIAFPMSPEELAAGDPAALARREALAKEYGLPEIEPS [r1_438_JUSTAS]', '0 (no)'),
  ('SAGGELIEKAIEEALENGEEVEIEVVLRDENGELYRIRIRVRRERLPDGEVKTEIEIEIERFPLPEESAGGS [r16_323_TrROS_Hall]', '1 (yes)'),
  ('SAGSIQVSESALAPGYSLYTITIPYQSIEDAKKLVEEIVSKRFSVPAEIIETKVDPNTGVVTFTVKVPPSAG [r5_810_JUSTAS]', '1 (yes)'),
  ('SAGMKTLTGPPEVLEELVEKALKENPNAKTVTIVDGDKSVTVPKDEEVEFLEPAPQPDGEPYVTIEILESAG [r5_130_JUSTAS]', '0 (no)'),
  ('SMSIKRARLRPEEIEAEIAALEAQGLRVKREPLEVTPVEVPLKLPDGTPRRVEVVEVVFRLELTPLDQPPSA [r9_991_JUSTAS]', '0 (no)'),
  ('SAGGPSAENLVEGDKVLLLIPLGDGPERRLELPLPDGRPVVVEVEPDRPGLITVTIPETGKPIVLPLSAGGS [r16_198_TrMRF]', '0 (no)');
